conditionDetails: buffer; pH 7.4; 200.0 µM
Is solubility kinetic at least 10 µg/mL? Then criterion met. If not, criterion not met.

Completed entries (count: 3):
Prompt: Reported solubility kinetic at or above 10 µg/mL? Cn1cnc([N+](=O)[O-])c1Sc1nc2ccccc2[nH]1
Completion: criterion not met

Prompt: Query c1ccc2c(c1)CCNC2c1ccncc1 (stereo unspecified) next
Completion: criterion met

Prompt: Thanks! And Cc1ccc(S(=O)(=O)N[C@H](C(=O)NC2CCC(C)CC2)C(C)C)cc1 (stereo partly specified) ?
Completion: criterion met

Others:
Prompt: Say whether CC1CCN(C(=S)NC(=O)c2ccc(C(C)(C)C)cc2)CC1 shows solubility kinetic of 10 µg/mL or more.
Completion: criterion not met

---

conditionDetails: buffer; pH 7.4; 200.0 µM
quantity: solubility kinetic (µg/mL)
Answers are plain numbers, in µg/mL.

Worked cases, answers included:
Prompt: Give its solubility kinetic value. Item: Cc1cc(C)cc(OCC(=O)O/N=C(\N)c2cccnc2)c1
Completion: 38.3

Prompt: For Nc1nc(COc2ccc(F)cc2)nc(N2CCCCC2)n1 then?
Completion: 1.9

Prompt: Note, next up: CS(=O)(=O)N1CCN(C(=O)Cc2ccc([N+](=O)[O-])cc2)CC1
Completion: 49

Prompt: Now this one: CC(=O)Nc1ccc(C(=O)NCCN2CCOCC2)cc1
Completion: 36

Working through the 3 compounds below one at a time, give solubility kinetic for each.
1. C=CCN(c1ccccc1)S(=O)(=O)c1cccc2cccnc12
2. CCC(=O)NCc1c(C)c(C)n(Cc2ccccc2)c1-n1cccc1
3. CC(=O)c1ccc(NC(=O)Nc2cccnc2)cc1

Completion:
1. 34.9
2. 4.6
3. 32.4

---

conditionDetails: buffer; pH 7.4; 200.0 µM
quantity: solubility kinetic

Would you please look over these solved cases?
Prompt: Look up solubility kinetic: Cc1ccc(C(=O)OCC(=O)Nc2cccc(Cl)c2C)c(O)c1
Completion: < 0.0007 mg/mL

Prompt: Also Cc1ccc(CNS(=O)(=O)c2c(C)[nH]c(=O)[nH]c2=O)cc1 , if possible.
Completion: > 0.0464 mg/mL

Prompt: Same lookup for O=C(O)/C=C\C(=O)O.c1ccc(Sc2ccccc2CN2CCCC2)cc1 , please.
Completion: > 0.0578 mg/mL

Prompt: Lookup CCCOCCc1nnc(N)s1
Completion: > 0.0281 mg/mL

Prompt: Could you do the same for CC(=O)N1CCC(C(=O)Nc2cc(C)cc(C)c2)CC1 , please?
Completion: > 0.0412 mg/mL

Prompt: Next molecule: CN1CCN(NC(=O)c2cccc(C(F)(F)F)c2)CC1
Completion: > 0.0431 mg/mL

Prompt: // same read-out, input: N#C/C(=C\c1ccncc1)c1ccc(NC(N)=O)cc1
Completion: 0.0138 mg/mL

Prompt: Next record, please: O=C(CN1C(=O)NC(CCc2ccccc2)C1=O)N1CCCCCC1 (configuration not stated)
Completion: > 0.0515 mg/mL

Prompt: Item: COc1ccc(C(=O)NCC(=O)OCC(=O)NCc2ccco2)cc1
Completion: > 0.052 mg/mL

Prompt: Queued: COc1ccc(NC(C)=O)cc1CP(=O)(c1ccccc1)c1ccccc1
Completion: > 0.0569 mg/mL

Hey, quick one: what's solubility kinetic for each of these?
1. O=C(Cc1ccccc1Cl)Nc1nc2ccccc2[nH]1
2. CCOc1cc(Br)c(C(C)NC(=O)c2cccnc2)cc1OCC (configuration not stated)

Completion:
1. 0.0026 mg/mL
2. > 0.059 mg/mL

---

conditionDetails: buffer; pH 7.4; 200.0 µM
For each of the compounds below, state its solubility kinetic.
Answers are plain numbers, in µg/mL.

Hey, quick one: what's solubility kinetic for each of these?
1. CCN(C(=O)CSc1nc2ccccc2c(=O)n1-c1ccccc1F)C1CCS(=O)(=O)C1 (centres undefined)
2. Cc1ccccc1C(=O)NC1CCN(CC(=O)NCc2ccccc2)CC1
3. O=C(COC(=O)c1c[nH]c2ccccc12)Nc1ccccc1
4. ClCc1nc2ccccc2c2ccccc12
5. CCC(=O)N(CCC(c1ccc(C)cc1)c1ccco1)Cc1ccco1 (centres undefined)
6. Cc1ccnc(SC2CC(=O)N(c3ccc(F)cc3)C2=O)n1 (centres undefined)

Completion:
1. 9.5
2. 47.7
3. 1.9
4. 3.2
5. 45.6
6. 38

Answer for every listed entry: what is its solubility kinetic? The entries follow.
1. COc1ccccc1NC(=O)C(=O)/C=C(\O)c1ccccc1
2. Nc1ccc(N2CCCC2)c(S(=O)(=O)Nc2cccc(C(F)(F)F)c2)c1
3. CC(=O)Nc1nc2cccc([N+](=O)[O-])c2s1
4. COc1cccc(Oc2ccc(S(=O)(=O)N3CCOCC3)cc2[N+](=O)[O-])c1
5. Cc1ccc(C(=O)ONC(=O)c2ccc(Cl)cc2)cc1[N+](=O)[O-]
6. CC(C)OC(=O)C(C)Nc1ccc(F)c(Cl)c1 (centres undefined)
7. O=C1CSC(=S)N1c1cccc(Br)c1

Completion:
[10.8, 25.8, 2.8, 11, 46.8, 5.8, 2.9]

Consider the following items and state reported solubility kinetic for each.
1. COc1ccc(S(=O)(=O)NCCc2c[nH]c3ccc(Cl)cc23)cc1
2. O=C(/C=C/c1ccccc1[N+](=O)[O-])N1CCc2ccccc2C1
3. O=C(NCC1CCCCC1)c1cc2ccccc2cc1O
4. S=C(Nc1ccccc1)Nc1ccccc1Br
5. COC(=O)c1ccc(CNC(=O)COC(=O)/C=C/c2ccc(O)c(OC)c2)cc1
6. Cc1csc(SCC(=O)Nc2cc(C(N)=O)cc(C(N)=O)c2)n1

Completion:
[18.6, 20.3, 9.7, 16.4, 13.4, 51.6]

Batch request: solubility kinetic per item, same order as input.
1. COc1cc(OC)cc(C(=O)NC(C)CCc2ccccc2)c1 (centres undefined)
2. O=C(CSc1cc(Cl)ccc1Cl)NC1CC1
3. CCCc1cc(=O)[nH]c(SCc2ccc(F)cc2)n1
4. COc1ccc(OC)c(N=Cc2c(O)[nH]c(=O)[nH]c2=O)c1

Completion:
1: 34.2; 2: 37.7; 3: 3.2; 4: 7.1

For each entry beneath this line, provide reported solubility kinetic.
1. O=c1c2ccccc2ncn1-c1ccc(Cl)cc1
2. O=S(=O)(Nc1ccc2ccccc2n1)c1ccc2c(c1)CCO2
3. COc1ccc(S(=O)(=O)N2CCSCC2)cc1C(N)=O
4. CC(=O)c1sc(Nc2nc3cc4c(cc3s2)OCO4)nc1C
5. CCOC(=O)c1sc(-c2ccccn2)nc1C
6. COc1ccc(CCNC(=O)COC(=O)c2ccc(C)s2)cc1
7. COc1ccc(NC(=S)N2CCCCCC2)cc1OC

Completion:
1: 8.7; 2: 45.9; 3: 25; 4: 0.6; 5: 23.4; 6: 27.6; 7: 42.4

---

Provide the reported solubility kinetic of each item.
conditionDetails: buffer; pH 7.4; 200.0 µM
One number for each entry, in µg/mL.

Prompt: Name the reported solubility kinetic value associated with the compound COc1cc2c(cc1OC)C(c1ccc(C)cc1)NC(=O)C2 (centres undefined)
Completion: 42.5

Prompt: Consider next the compound O=C(Nc1cccc(-c2cn3c(n2)SCC3)c1)c1ccc2c(c1)OCO2 in the same way.
Completion: 18.1

Prompt: Again, but for CC(C)[C@H](NS(=O)(=O)c1cccc(C(F)(F)F)c1)C(=O)OCC(=O)NC(=O)NCc1ccco1
Completion: 13.4

Can you give me solubility kinetic for all of these, one by one?
1. COc1ccccc1NC(=O)Nc1ccc(C)cn1
2. Cc1cc2cc(CCNC(=O)CCCc3ccccc3)c(=O)[nH]c2cc1C
3. COc1ccc(C(=O)O)cc1S(=O)(=O)Nc1ccc(N2CCCCC2)cc1
4. CC(C)(C)NCCOc1ccc2ccccc2c1
5. Cc1cccc(NC(=O)COC(=O)c2ccc3nc(C)c(C)nc3c2)c1

Completion:
1: 0.8; 2: 1.7; 3: 54.7; 4: 26.8; 5: 3.6

List the reported solubility kinetic of each compound below.
1. COc1ccc(CNC(=S)Nc2ccc(F)c(Cl)c2)cc1
2. O=C1Nc2ccccc2C1=Nc1ccc(Br)cc1
3. Cc1cc(SCc2ccc(F)cc2)nc(=O)[nH]1

Completion:
1. 1.8
2. 6.7
3. 22.1

Provide solubility kinetic values for the following items, in order.
1. CN1C(=O)C(CCC(=O)O)NC1=S (centres undefined)
2. Cc1ccc(C(=O)NC(C(=O)NC2CCCC2)c2ccccc2)cc1 (centres undefined)

Completion:
1. 28.2
2. 4.1

---

Please respond with reported solubility kinetic for every item in the list.
conditionDetails: buffer; pH 7.4; 200.0 µM

Worked examples follow.
Prompt: solubility kinetic lookup needed for COC(=O)Nc1nncs1 , thanks.
Completion: > 23.9 µg/mL

Prompt: CCN(CC)CC1C(=O)N(c2ccc(OC)cc2)C1c1ccccc1 (stereo unspecified) ?
Completion: > 50.8 µg/mL

Prompt: What do you have for CCNc1c([N+](=O)[O-])c(=O)n(CC)c2ccccc12 ?
Completion: 34.1 µg/mL

Prompt: How about this compound: CCC(=O)N(Cc1cc2ccccc2[nH]c1=O)c1ccccc1OC
Completion: 32.2 µg/mL

Prompt: Can you handle CC(C)COc1ccc(CNC(=S)Nc2ccccc2)cc1Cl next?
Completion: < 0.4 µg/mL

We now examine a further compound.
Prompt: I am curious: what solubility kinetic value has been reported for Cc1cccc(NC(=O)C(C)Oc2ccc(C)nc2[N+](=O)[O-])c1 (stereo unspecified) ?
Completion: > 47.3 µg/mL
